These data points were gathered from PubChem BioAssay AID770.

Test: HT29 colon tumor cell growth inhibition, primary screen, imaging, high content imaging, 24 h, CellTiter-Glo (AID 770);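 for condensed nuclei: share of cells whose nuclear area falls below control median minus 1.5 SD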
Details: HT29 cell number by imaging, measured here: percent cells with condensed nuclei, at 10 µM, stronger effect = higher value
Fewer than 10 of roughly 3,300 compounds were called active. Not all results are given here.
# binarize condensed nuclei: threshold 3% inclusive, high side Fulfilled, low side Not fulfilled

## Task Given the entry CCOC(=O)/C=c1\s/c(=C(\C#N)C(=O)OCC)n(-c2ccccc2)c1=O , answer whether its condensed nuclei meets or surpasses 3%.
## Result Not fulfilled

## Task Dear colleague, could you confirm whether CN(C)/C=C1\N=C(c2cccs2)OC1=O has condensed nuclei at or above 3%?
## Result Not fulfilled

## Task Given Cc1cc(OCC(=O)Nc2ccc3oc(-c4ccncc4)nc3c2)ccc1Cl , state whether its condensed nuclei is at least 3%.
## Result Not fulfilled

## Task Identify whether the reported condensed nuclei of the following compound is 3% or greater: O=C(c1ccco1)N1CCN(CCOCCOc2cccc3ccccc23)CC1
## Result Fulfilled

## Task Please indicate if the recorded condensed nuclei for Nc1nnc(CSCc2ccc(F)cc2)s1 meets or exceeds 3%.
## Result Fulfilled

## Task Determine whether measured condensed nuclei meets or exceeds 3% for C=CCN=C(C)C1=C(O)CCC1=O
## Result Not fulfilled

## Task Is condensed nuclei at least 3%? Consider CCOC(=O)C(NC=O)(NC(C)(C)C)C(=O)OCC
## Result Not fulfilled

## Task For this compound, is measured condensed nuclei 3% or higher? Cc1nc2sc(C#N)c(N)c2c2c1CCCC2
## Result Not fulfilled

## Task Quick check, condensed nuclei >= 3%? CC1CCN(c2[nH]c(=S)c(C#N)c3c2CCCC3)CC1
## Result Not fulfilled

## Task # bool: condensed nuclei of Cn1c(O)c(C=Nc2ccc(Cc3ccncc3)cc2)c(=O)n(C)c1=O >= 3%
## Result Not fulfilled

## Task Answer whether condensed nuclei of CCCCSc1nnc(-c2ccc(NC(C)=O)cc2)n1C is greater than or equal to 3%.
## Result Not fulfilled

---

Assay: HT29 colon tumor cell growth inhibition, primary screen, imaging, high content imaging, 24 h, CellTiter-Glo (AID 770);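 for condensed nuclei: share of cells whose nuclear area falls below control median minus 1.5 SD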
Conditions: HT29 cell number by imaging, measured here: percent cells with condensed nuclei, at 10 µM, stronger effect = higher value
In all, about 3,300 compounds went through this assay and fewer than 10 were called active. The list is a sample of the results.
Provide the recorded condensed nuclei for the entries that follow.
Hi! Could you send only the number? It should be in %, unit omitted.

## Task Using the record for Nc1nnnn1CC(=O)OCc1cccc(Br)c1 , report its condensed nuclei.
## Result 1.92

## Task Dear colleague, I am looking for the recorded condensed nuclei of the following compound: CCOC(=O)NC(Nc1cc(C)on1)(C(F)(F)F)C(F)(F)F
## Result 4.42

## Task For the compound Cc1cc(=O)oc(C)c1C(=O)Nc1cccc2nonc12 , what condensed nuclei is on record?
## Result 3.32

## Task Could you share which condensed nuclei value was measured for CN(C)CCCN(CCCNC(=O)/C=N/O)Cc1ccccc1 ?
## Result 2.84

## Task Record request: condensed nuclei value, item Cc1cc(Cn2ccnc2)c(C)cc1Cn1ccnc1
## Result 3.14

## Task Endpoint output: condensed nuclei of CCOC(=O)N1CCN(c2ncnc3c2cnn3-c2ccc(OC)cc2)CC1 . Value?
## Result 3.96

## Task Which value of condensed nuclei has been reported for O=C(C/C(=N/O)c1ccccc1O)C(F)F in the records?
## Result 1.25

## Task // query condensed nuclei value for entry CCc1cc(=O)oc2c(CN3CCN(C)CC3)c(O)c(Cl)cc12
## Result 4.11

## Task Quick check: condensed nuclei of CCn1c(-c2ccco2)n[nH]c1=S ?
## Result 3.02

## Task Fill in the blank: the reported condensed nuclei of CCOC(=O)C1CCCN(c2nc3ccccc3nc2C(C#N)C(=O)OCCOC)C1 (configuration not stated) is ____.
## Result 9.83

## Task Bench note: what condensed nuclei did CC1(C)Cc2c(sc3c4nnnn4c4nnnn4c23)CO1 show?
## Result 2.72

## Task Need condensed nuclei, item COc1cc(C)nc(N(C)S(=O)(=O)c2ccccc2Cl)n1
## Result 3.59

---

Test: HT29 colon tumor cell growth inhibition, primary screen, imaging, high content imaging, 24 h, CellTiter-Glo (AID 770)
Conditions: HT29 cell number by imaging, measured here: ATP CellTiter-Glo viability, at 10 µM, stronger effect = higher value
Fewer than 10 of roughly 3,300 compounds were called active. Not all results are given here.
readout: growth inhibition (%)
Please give a number only; it is taken to be in %.

## Task Give its growth inhibition value. Item: CCCC(=O)N(Cc1cc2ccccc2[nH]c1=O)c1ccccc1OC
## Result 5.4

## Task Can you share its growth inhibition? I mean this compound: CCN(CC)c1ccc(C2Nc3cccc4cccc(c34)N2)c(O)c1
## Result 11.2

## Task Name the reported growth inhibition value associated with the compound c1ccc(N2CCN(c3nc(-c4ccccn4)nc4ccccc34)CC2)cc1
## Result -10.8

## Task Consider the compound CNC(=O)CC(C(=O)O)c1ccc(OC(C)C)cc1 (stereo unspecified) and give its measured growth inhibition.
## Result 5.18

## Task Can you look up the measured growth inhibition of N#CC1=C(SCC(=O)c2ccc(Cl)cc2)NC2=C(C(=O)CCC2)C1c1ccco1 (stereo unspecified) for me?
## Result 40

## Task I would be grateful if you could share the reported growth inhibition for O=C(O)CCc1cc(I)c(Oc2ccc(O)c(I)c2)c(I)c1 .
## Result 3.12

## Task Endpoint output: growth inhibition of CCOC(=O)C1CCN(c2nc3ccccc3nc2C(C#N)C(=O)OC(C)COC)CC1 (stereo unspecified) . Value?
## Result 11.6

## Task Suppose we examine the compound CC1(C)Cc2c(c(N3CCOCC3)nc3sc(C#N)c(N)c23)CS1 ; what growth inhibition value has been reported?
## Result 12.8

## Task Could you share which growth inhibition value was measured for COc1ccc(S(=O)(=O)N2CCC(N3CCCCC3)CC2)cc1 ?
## Result 3.08

## Task Record request: growth inhibition value, item CC(C)CC(C(=O)O)C(C)CC(=O)Nc1ccn(-c2ccccc2)n1 (stereo unspecified)
## Result -0.54

## Task Value lookup for growth inhibition; key = CC1(C)NC(=O)N(CC(O)COc2cc3ccccc3cc2C(=O)N2CCCCC2)C1=O (stereo unspecified)
## Result -6.38

## Task # get_value(readout='growth inhibition', item= CC1(C)CC(N(Cc2ccco2)C(=O)Cc2ccccc2)CCO1 (stereo unspecified) )
## Result 0.11

## Task Which growth inhibition value is on record for O=C(c1cccc2ccccc12)N1CCC(N2CCN(c3ccccc3)CC2)CC1 ?
## Result -18.2

## Task # query: growth inhibition of entry Cc1cccc(C)c1NC(=O)CSCC(=O)c1ccc(O)c(O)c1
## Result -2.15

## Task Which growth inhibition value is on record for FC(F)(F)c1cccc(N2CCc3cn[nH]c32)c1 ?
## Result -4.43

## Task Recorded growth inhibition of COC(=O)c1n[nH]c2ccccc12 , please.
## Result 8.18

## Task // query growth inhibition value for entry CN1CCN(CCCN2c3ccccc3Sc3ccc(C(F)(F)F)cc32)CC1
## Result 87.9

## Task // growth inhibition lookup, key: OCCN1CCN(CCCN2c3ccccc3Sc3ccc(Cl)cc32)CC1
## Result 77.7

## Task Look up growth inhibition for this compound: CCCCCC(=O)N1CC2(C)CN(C(=O)CCCCC)CC(C)(C1)C2=O
## Result -0.56

## Task # lookup: growth inhibition of CCSc1nnc(NC(=O)C(CC)(C(F)(F)F)C(F)(F)F)s1
## Result -3.56

## Task Given N#CCSc1nc2c(cc1C#N)CCCCCC2 , state its recorded growth inhibition.
## Result 16.5

## Task // returns reported growth inhibition for input COc1ccc(-n2ccc(=O)c3c2CCCC3=O)cc1
## Result 1.93

## Task growth inhibition for CCN(CC)CCCn1c(C)cc2c(c1=O)C(c1ccccc1)C(C#N)=C(N)O2 (stereo unspecified) ?
## Result -0.04

## Task Tell me the measured growth inhibition of CN1C2C=C3C(C#N)=C(N)C(C#N)(C#N)[C@@H](c4cccs4)C3C1CC2 (stereo partly specified) , please.
## Result -11.8

## Task Which value of growth inhibition has been reported for c1ccc2c(c1)NC(c1ccncc1)n1c-2nc2ccccc21 (stereo unspecified) in the records?
## Result -9.59

## Task What value of measured growth inhibition is listed for COc1cc(C)nc(N(C)S(=O)(=O)c2ccccc2Cl)n1 ?
## Result -1.53

## Task Record request: growth inhibition value, item O=C(NCCOCCOCCNC(=O)c1cccnc1)c1cccnc1
## Result -16.6

## Task Recorded growth inhibition of CN1CCN(CCCN2c3ccccc3Sc3ccc(Cl)cc32)CC1 , please.
## Result -28.5

## Task Can you look up the measured growth inhibition of CCOC(=O)C1CCCN(c2nc3ccccc3nc2C(C#N)C(=O)OCCOC)C1 (stereo unspecified) for me?
## Result 70

## Task What measured growth inhibition goes with CCOC(=O)/C=c1\s/c(=C(\C#N)C(=O)OCC)n(-c2ccccc2)c1=O ?
## Result -10.2

## Task What does the record list as growth inhibition for O=C1OC(Nc2ccc(Br)cn2)c2ccccc21 (stereo unspecified) ?
## Result 2.61

## Task Form field: reported growth inhibition of Cc1ccc(NC(=O)Cn2nc(C)c3ccccc3c2=O)cc1
## Result -4.94

## Task Fill in: growth inhibition of Nc1c2c(nc3ccccc13)N(c1ccccc1)CC2 is ___
## Result -9.66

## Task Data request, read-out growth inhibition, for Cc1cc(=O)oc(C)c1C(=O)Nc1cccc2nonc12
## Result 7.72

## Task Which measured growth inhibition value corresponds to COc1cc(-c2nn3c(COc4ccccc4)nnc3s2)cc(OC)c1OC ?
## Result 9.54

## Task Which growth inhibition value is on record for C=CCOc1ccc(C2/C(=C(\O)c3ccc(F)cc3)C(=O)C(=O)N2CCCN(C)C)cc1 (stereo unspecified) ?
## Result -2.77

## Task Name the reported growth inhibition value associated with the compound Cc1nc(Nc2ncc3c(n2)CCCC3=O)nc2ccccc12
## Result -26.2

## Task Look up growth inhibition for this compound: CCCOc1ccc(/C(O)=C2/C(=O)C(=O)N(CCN(C)C)C2c2ccncc2)cc1 (stereo unspecified)
## Result -1.78

## Task For the compound shown here, Nc1nonc1-c1noc(N2CCOCC2)n1 , give the reported growth inhibition.
## Result -12.3

## Task So what's the measured growth inhibition for this one? Cc1cccn2c(=O)c3cc(C(N)=S)c(=N)n(CCCOC(C)C)c3nc12
## Result -18.1

## Task Looking for the measured growth inhibition of CCOc1cc(C2Nc3ccccc3C(=O)N2c2ccccc2OC)ccc1O (stereo unspecified) , can you help?
## Result -2.4

## Task Which growth inhibition reading was recorded for the compound Cc1ccc(-c2nnc(OCCN3CCOCC3)c3ccccc23)cc1 ?
## Result 10.1

## Task Which growth inhibition value belongs to CCN(CC)CCNc1nc(-c2ccco2)c2c(c1C#N)CC(C)(C)OC2 ?
## Result -1.61

## Task Give the measured growth inhibition of Cc1ccc(Oc2nc3c(c(=O)n(Cc4ccccc4F)c(=O)n3C)n2C)cc1 .
## Result 5.27

## Task Data request, read-out growth inhibition, for CC12CN3CC(C)(CN(C1)C3c1ccc(Cl)cc1Cl)C2O (stereo unspecified)
## Result 0.64

## Task Which growth inhibition value belongs to CC1(C)CC(=O)C=C(NCCO)C1 ?
## Result 9.68
